- System: Klebsiella pneumoniae
- assayInfo: Inhibition of Klebsiella pneumoniae KP1081 NDM-1 assessed as minimum concentration of compound required to reduce the MIC of biapenem to 1 ug/ml
assayReadout: MEC (µg/mL)

As a guide, the following entries are already answered.
### Prompt Which MEC is reported with Klebsiella pneumoniae for this entry: Nc1nnc(S[C@H]2Cc3cccc(C(=O)O)c3OB2O)s1 ?
### Response 0.3

### Prompt Request body: readout MEC, system Klebsiella pneumoniae, query Nn1cnnc1S[C@H]1Cc2cccc(C(=O)O)c2OB1O . Return the value.
### Response 0.16

### Prompt Identify the measured MEC of O=C(O)c1c(F)ccc2c1OB(O)[C@H]1C[C@@H]21 for Klebsiella pneumoniae.
### Response 5

### Prompt I'm curious: which MEC was measured for O=C(O)c1cccc2c1OB(O)[C@@H](Sc1c[nH]nn1)C2 tested on Klebsiella pneumoniae?
### Response 0.3

### Prompt MEC of O=C(O)c1nccc2c1OB(O)CC2 on Klebsiella pneumoniae?
### Response 1.25

### Prompt Give recorded MEC with Klebsiella pneumoniae for the following compound: C[C@@H]1Cc2cccc(C(=O)O)c2OB1O
### Response 10

### Prompt Record O=C(O)c1cccc2c1OB(O)[C@@H](Sc1ncccn1)C2 : what is its MEC with Klebsiella pneumoniae?
### Response 10

### Prompt Query MEC on Klebsiella pneumoniae for COc1ccc2c(c1C(=O)O)OB(O)C1CC21 (centres undefined)
### Response 0.6

[P] COc1ccc2c(c1C(=O)O)OB(O)CC21CC1
[Q] O=C(O)c1c(OCCF)ccc2c1OB(O)[C@@H](Sc1nncs1)C2
### Prompt # query: argmin of MEC over P and Q State the label of the item chosen.
### Response Q

[I] O=C(O)c1c(OCc2nncs2)ccc2c1OB(O)[C@@H](Sc1nncs1)C2
[II] O=C(O)c1cccc2c1OB(O)[C@@H]1C[C@H]21
[III] O=C(O)c1c(OCC2CC2)ccc2c1OB(O)[C@@H](Sc1nncs1)C2
### Prompt Put these in order: smallest MEC first, largest last. Use the labels to give the ranking in the order requested.
### Response II, III, I
(II: 0.6 µg/mL, III: 1.25 µg/mL, I: 2.5 µg/mL)

###

- systemTested: Plasminogen (Homo sapiens)
- Sequence (P00747 97-580 limits assumed): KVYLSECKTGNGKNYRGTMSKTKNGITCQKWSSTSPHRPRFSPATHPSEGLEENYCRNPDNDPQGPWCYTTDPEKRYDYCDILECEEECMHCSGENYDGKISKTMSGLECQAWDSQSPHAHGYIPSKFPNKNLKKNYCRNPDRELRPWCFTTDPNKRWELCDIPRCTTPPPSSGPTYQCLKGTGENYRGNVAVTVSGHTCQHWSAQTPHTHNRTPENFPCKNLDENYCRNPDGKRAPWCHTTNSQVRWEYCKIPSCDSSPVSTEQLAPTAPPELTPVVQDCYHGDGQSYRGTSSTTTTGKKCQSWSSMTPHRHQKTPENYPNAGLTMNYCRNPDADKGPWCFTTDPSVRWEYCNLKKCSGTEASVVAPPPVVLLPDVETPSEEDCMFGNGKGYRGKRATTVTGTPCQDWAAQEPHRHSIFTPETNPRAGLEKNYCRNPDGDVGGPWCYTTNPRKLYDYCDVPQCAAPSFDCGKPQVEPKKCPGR
- Sequence (P00747 581-810 limits assumed): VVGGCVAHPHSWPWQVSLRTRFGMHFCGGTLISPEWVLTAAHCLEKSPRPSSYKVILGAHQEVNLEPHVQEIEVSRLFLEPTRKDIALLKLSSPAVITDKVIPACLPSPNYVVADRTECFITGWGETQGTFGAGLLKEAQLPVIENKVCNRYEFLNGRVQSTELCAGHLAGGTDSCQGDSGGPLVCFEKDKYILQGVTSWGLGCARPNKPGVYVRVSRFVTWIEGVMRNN
assayReadout: IC50

### Prompt Short answer please: IC50, Plasminogen (Homo sapiens), entry O=C(O)c1c(F)ccc2c1OB(O)[C@@H]1C[C@H]21 [XERUBORBACTAM]
### Response > 1000 µM

###

- systemTested: UniProtKB P42892
- Sequence (P42892 whole entry): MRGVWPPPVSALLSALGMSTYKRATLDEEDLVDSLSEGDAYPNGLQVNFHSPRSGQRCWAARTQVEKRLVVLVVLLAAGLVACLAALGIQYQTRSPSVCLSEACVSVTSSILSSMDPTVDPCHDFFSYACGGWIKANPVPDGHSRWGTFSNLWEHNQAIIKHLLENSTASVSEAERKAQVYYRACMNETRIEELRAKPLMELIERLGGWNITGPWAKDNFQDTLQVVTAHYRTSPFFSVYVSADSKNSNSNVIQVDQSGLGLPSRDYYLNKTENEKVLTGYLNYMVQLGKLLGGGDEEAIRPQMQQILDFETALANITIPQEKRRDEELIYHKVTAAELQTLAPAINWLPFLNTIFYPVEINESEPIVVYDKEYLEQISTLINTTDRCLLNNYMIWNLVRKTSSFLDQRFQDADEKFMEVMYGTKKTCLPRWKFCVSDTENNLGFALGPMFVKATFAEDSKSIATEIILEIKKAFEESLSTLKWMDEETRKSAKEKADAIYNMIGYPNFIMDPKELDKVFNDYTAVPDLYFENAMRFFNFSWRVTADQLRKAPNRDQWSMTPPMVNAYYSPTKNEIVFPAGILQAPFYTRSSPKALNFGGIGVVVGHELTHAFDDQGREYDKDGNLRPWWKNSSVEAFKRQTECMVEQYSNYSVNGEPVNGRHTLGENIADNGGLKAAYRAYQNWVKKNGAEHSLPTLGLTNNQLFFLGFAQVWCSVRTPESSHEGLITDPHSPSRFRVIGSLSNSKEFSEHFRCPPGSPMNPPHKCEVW
assayReadout: pIC50
Worth noting: pIC50 values are minus log10 of concentrations stated in mol/L.

### Prompt Give pIC50 (UniProtKB P42892) of the following molecule: O=C(O)c1c(F)ccc2c1OB(O)[C@@H]1C[C@H]21 [XERUBORBACTAM]
### Response 3.37

###

- assayInfo: Clearance in rat at 30 mg/kg, po administered via gavage by HPLC/MS analysis
- Assay type: ADME, organism-based
- conditionInfo: in vivo
assayReadout: CL/F (mL/min/kg)
Respond with the bare value in mL/min/kg.

### Prompt # get_value(readout='CL/F', item= O=C(O)c1c(F)ccc2c1OB(O)[C@@H]1C[C@H]21 )
### Response 15.2

###

- systemTested: Beta-lactamase OXA-23 (Acinetobacter baumannii) (UniProt Q9L4P2)
- Sequence (Q9L4P2 whole entry): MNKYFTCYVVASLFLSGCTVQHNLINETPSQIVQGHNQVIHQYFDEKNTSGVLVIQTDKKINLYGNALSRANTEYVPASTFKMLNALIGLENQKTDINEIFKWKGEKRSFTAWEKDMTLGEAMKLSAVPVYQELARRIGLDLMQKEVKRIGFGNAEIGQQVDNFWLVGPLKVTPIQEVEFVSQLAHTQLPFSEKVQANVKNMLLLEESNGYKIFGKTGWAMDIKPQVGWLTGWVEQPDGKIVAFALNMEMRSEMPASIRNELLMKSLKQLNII
- assayInfo: Inhibition of Acinetobacter baumannii AB1054 OXA-23 assessed as minimum concentration of compound needed to reduce the MIC of meropenem to 8 ug/ml
assayReadout: MEC (µg/mL)

### Prompt Please state recorded MEC (tested on Beta-lactamase OXA-23 (Acinetobacter baumannii) (UniProt Q9L4P2)) of O=C(O)c1cccc2c1OB(O)CC2
### Response 20

### Prompt Under Beta-lactamase OXA-23 (Acinetobacter baumannii) (UniProt Q9L4P2): MEC value of COc1ccc2c(c1C(=O)O)OB(O)C1C2C1(F)F (configuration not stated) ?
### Response 10

### Prompt What MEC appears in the records for this compound with Beta-lactamase OXA-23 (Acinetobacter baumannii) (UniProt Q9L4P2)? O=C(O)c1c(F)ccc2c1OB(O)[C@@H]1C[C@H]21
### Response 1.25

### Prompt Notebook: pull reported MEC for Beta-lactamase OXA-23 (Acinetobacter baumannii) (UniProt Q9L4P2), entry O=C(O)c1c(F)ccc2c1OB(O)[C@H]1C[C@@H]21
### Response 10

### Prompt What measured MEC is associated with COc1ccc2c(c1C(=O)O)OB(O)[C@H]1C[C@@H]21 on Beta-lactamase OXA-23 (Acinetobacter baumannii) (UniProt Q9L4P2)?
### Response 1.25

[I] COc1ccc2c(c1C(=O)O)OB(O)[C@@H]1C[C@H]21
[II] COc1ccc2c(c1C(=O)O)OB(O)CC21CC1
### Prompt Lab log: flag the item ( I or II ) with the smaller MEC figure. Label of pick, please.
### Response I

###

- Tested on: Escherichia coli
- assayInfo: Inhibition of Escherichia coli ECM6619 TEM-10 assessed as minimum concentration of compound needed to reduce the MIC of aztreonam to 4 ug/ml
assayReadout: MEC (µg/mL)

[A] O=C(O)c1c(F)ccc2c1OB(O)CC2
[B] O=C(O)c1c(F)ccc2c1OB(O)[C@H]1C[C@@H]21
[C] COc1ccc2c(c1C(=O)O)OB(O)C1C2C1(F)F (stereo not given)
### Prompt Which order do these fall in by MEC? Give them lowest to highest. Would you mind listing the labels in the order requested?
### Response A, B, C

[I] O=C(O)c1nccc2c1OB(O)CC2
[II] CSCC(=O)N[C@H]1Cc2ccc(F)c(C(=O)O)c2OB1O
### Prompt // compare measured MEC between I and II ; output the lower one Output the label that corresponds to your choice.
### Response I

###

- Test system: Klebsiella pneumoniae
- assayInfo: Inhibition of Klebsiella pneumoniae KP1081 NDM-1 assessed as minimum concentration of compound required to reduce the MIC of biapenem to 1 ug/ml
The following molecules are listed with their measured MEC values.

Some solved entries appear below for comparison.
### Prompt Tell me reported MEC for O=C(O)c1cccc2c1OB(O)[C@@H](Sc1ncc[nH]1)C2 , tested with Klebsiella pneumoniae.
### Response > 20 µg/mL

### Prompt Which measured MEC belongs to O=C(O)c1c(OC2COC2)ccc2c1OB(O)[C@@H](Sc1nncs1)C2 , tested on Klebsiella pneumoniae?
### Response > 20 µg/mL

From here, focus on the item given below.
### Prompt Short answer please: MEC, Klebsiella pneumoniae, entry CSCC(=O)N[C@H]1Cc2ccc(F)c(C(=O)O)c2OB1O
### Response > 20 µg/mL

###

Consider the following compounds and their measured MEC readings.
- Tested on: Klebsiella pneumoniae
- assayInfo: Inhibition of Klebsiella pneumoniae KP1009 CTX-M-15 assessed as minimum concentration of compound required to reduce the MIC of aztreonam to 4 ug/ml

Study these solved cases before continuing.
### Prompt Record request: MEC value, item NC(=O)CS[C@H]1Cc2cccc(C(=O)O)c2OB1O
### Response > 10 µg/mL

### Prompt Give the measured MEC of Nc1nnc(S[C@H]2Cc3cccc(C(=O)O)c3OB2O)s1 .
### Response > 10 µg/mL

### Prompt Which MEC is reported for this compound? O=C(O)c1c(OCC2CC2)ccc2c1OB(O)[C@@H](Sc1nncs1)C2
### Response > 20 µg/mL

### Prompt Which MEC is listed for C[C@@H]1Cc2cccc(C(=O)O)c2OB1O ?
### Response > 20 µg/mL

### Prompt // lookup MEC for C[C@H]1Cc2cccc(C(=O)O)c2OB1O
### Response > 20 µg/mL

### Prompt For the compound CSCCOc1ccc2c(c1C(=O)O)OB(O)[C@@H](Sc1nncs1)C2 , what MEC is on record?
### Response > 20 µg/mL

### Prompt What does the data say about its MEC? Entry: O=C(O)c1cccc2c1OB(O)[C@@H](Sc1nncs1)C2
### Response > 20 µg/mL

### Prompt // lookup MEC for O=C(O)c1cccc2c1OB(O)[C@@H](OC1CNC1)C2
### Response > 20 µg/mL

New cases:
### Prompt Can you share its MEC? I mean this compound: Nc1nnc(S[C@H]2Cc3cccc(C(=O)O)c3OB2O)[nH]1
### Response > 20 µg/mL

### Prompt Bench note: what MEC did O=C(O)c1c(OC2COC2)ccc2c1OB(O)[C@@H](Sc1nncs1)C2 show?
### Response > 20 µg/mL

### Prompt Looking for the measured MEC of O=C(O)c1cccc2c1OB(O)[C@@H](Sc1ncccn1)C2 , can you help?
### Response > 20 µg/mL

### Prompt Could you tell me which MEC is on file for O=C(O)c1cccc2c1OB(O)[C@@H](Sc1cccnc1)C2 ?
### Response > 20 µg/mL

### Prompt Name the reported MEC value associated with the compound N=C(N)S[C@H]1Cc2cccc(C(=O)O)c2OB1O
### Response > 20 µg/mL

### Prompt # lookup: MEC of CSCC(=O)N[C@H]1Cc2ccc(F)c(C(=O)O)c2OB1O
### Response < 0.3 µg/mL

### Prompt Value lookup for MEC; key = NC(=O)CCS[C@H]1Cc2cccc(C(=O)O)c2OB1O
### Response > 20 µg/mL

### Prompt So what's the measured MEC for this one? CS[C@H]1Cc2cccc(C(=O)O)c2OB1O
### Response > 20 µg/mL

### Prompt Suppose we examine the compound COc1ccc2c(c1C(=O)O)OB(O)C(CO)C2 (centres undefined) ; what MEC value has been reported?
### Response > 20 µg/mL

### Prompt Look up MEC: N#CCOc1ccc2c(c1C(=O)O)OB(O)[C@@H](Sc1nncs1)C2
### Response > 20 µg/mL

### Prompt Returns the measured MEC for the input compound. Input: COc1ccc2c(c1C(=O)O)OB(O)C1(CC1)C2
### Response > 20 µg/mL
